System: HCV genotype 1b
Assay: HCV 1b replicon luciferase assay
Type: cell-based
Experimental parameters: Hepatitis C virus, Huh-7, 48 h, Table 1; Huh7 HCV 1b replicon, luciferase reporter, 48 hours; read-out: 1b EC50
For each of the compounds below, state its pEC50.
Schema: pEC50 number; meaning minus log10 of the concentration expressed in molar units.

Lookup: Return reported pEC50; argument: "CN(Cc1ccccc1)c1ccc2c(C(=O)NC3CCNCC3)n[nH]c2n1"
Found: 5.70

Lookup: Return reported pEC50; argument: "CCCn1nc(C(=O)NC2CCNCC2)c2ccc(N3CCCCCC3)nc21"
Found: 5.48

Lookup: Return reported pEC50; argument: "Cn1nc(C(=O)N[C@@H]2C[C@H]3CC[C@@H](C2)N3)c2ccc(N3CCCCCC3)nc21"
Found: 5.31

Lookup: Return reported pEC50; argument: "Clc1ccc(Cn2nc(COCCCN3CCCCC3)c3ccc(N4CCCCCC4)nc32)cc1"
Found: 5.70
